System: Chordin-like protein 2 (CHRDL2)
assay_info: compounds binding chordin-like 2 – biochemical, small-molecule microarray, 635 nm fluorescence, primary screen (AID 1126);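 note: printed compound slides probed with Chrdl2 protein at 4 µg/mL for 1 h at 4 C; score merges 667 nm emission intensity with signal to noise over three replicate slides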
condition_set: fluorescence 635 nm, higher = more signal
The label depends only on composite z-score: true (1) if it is at least -0.4, false (0) if it is smaller.

# compound, assigned_class
records = [
    ("[N-]=[N+]=Nc1ccccc1C[C@]1(C(=O)N2CCCCC2)COC(c2ccc(OCCCO)cc2)=N1", "true (1)"),
    ("O=C1[C@H]2C=C(I)[C@H](C[C@@H]2OCCCCO)[C@@]12CO2", "true (1)"),
    ("O=C1OCCC/C=C\\[C@H]2OC34C=CCN(c5ccc6ccccc6c5)C(=O)[C@H]3N(CCCCCO)C(=O)[C@@H]4C12 (stereo partly drawn)", "false (0)"),
    ("O=C(O)[C@@]1(CCS(=O)(=O)c2ccccc2)N=C(c2ccc(OCCCO)cc2)O[C@H]1c1ccccc1", "false (0)"),
    ("COC(=O)[C@@]1(Cc2ccc(OC)cc2)[C@H]2c3cc(C(=O)N4CCCC4)n(CCc4ccc(O)c(O)c4)c3C[C@H]2CN1C(=O)c1ccccc1", "true (1)"),
]

Next compound, please.
// inclusive: composite z-score at least -0.4? input: CN(C)CCCCNC(=O)[C@@H]1C[C@@H]2C(=O)N[C@@H](CCCCN)C(=O)N2[C@@H]1c1ccc(O)cc1
true (1)
